assay: Intravenous administration of propranolol HCl and propranolol-o-hemi-succinate HCl; plasma levels of free propranolol (Example 3); type: in vivo, beagle dogs; conditions: dog, plasma, iv, 20 mg, 15 min after dosing; i.v., 20 mg propranolol HCl or equivalent; mean; read-out: Mean plasma level of free propranolol
Structures can show the parent of a compound that is named as a salt.
observable: concentration at 0.25 h (ng/mL)
Reply numerically in ng/mL, unit not repeated.

Reported concentration at 0.25 h of CC(C)NCC(O)COc1cccc2ccccc12 (stereo not shown) [propranolol HCl] : 247

---

assay: Oral administration of a reduced dose of propranolol-o-hemi-succinate hydrochloride; plasma levels of free propranolol (Example 4); format: in vivo, beagle dogs; conditions: dog, plasma, po, 80 mg, 13.4 mg hemi-succinate HCl or 80 mg propranolol HCl, dog #353 (101, 92), dog #250 (114, 168)
Structures can show the parent of a compound that is named as a salt.
observable: AUC at 6 h
State the value with its unit after it.

Input CC(C)NCC(O)COc1cccc2ccccc12 (stereo not shown) [propranolol HCl] . Output AUC at 6 h: 92 ng·h/mL

---

Test: Intravenous propranolol-o-hemi-succinate hydrochloride; plasma levels of unchanged ester and free propranolol (Example 5)
Format: in vivo, beagle dogs
Conditions: dog, plasma, iv, 26.7 mg, 1 hr; i.v. 26.7 mg; individual dogs; read-out: Plasma level of unchanged propranolol-o-hemi-succinate HCl
Method: Four beagle dogs were administered propranolol-o-hemi-succinate hydrochloride either intravenously or orally. The dogs were divided into two groups of two, each group receiving each dosing regimen according to a crossover design. […] Blood samples were collected at regular intervals after dosing and plasma was analyzed for free propranolol and unchanged propranolol-o-hemi-succinate hydrochloride. Plasma was analyzed for propranolol-o-hemi-succinate hydrochloride by a TLC fluorometric procedure. […]
Where a name gives a salt, the structure may show the parent alone.
observable: concentration at 1 h (ng/mL)
A number alone suffices; assume ng/mL.

// field: concentration at 1 h; key: CC(C)NCC(COc1cccc2ccccc12)OC(=O)CCC(=O)O (stereo not shown) [propranolol-o-hemi-succinate HCl] ; value = 287

---

assay: Intravenous propranolol-o-hemi-succinate hydrochloride; plasma levels of unchanged ester and free propranolol (Example 5); assay type: in vivo, beagle dogs; settings: dog, plasma, 26.7 mg; following intravenous dosing; read-out: t 1/2 of disappearance of propranolol-o-hemi-succinate hydrochloride
Where a name gives a salt, the structure may show the parent alone.
observable: half-life (min)
Please respond with the number in min and leave the unit unwritten.

The reported value for CC(C)NCC(COc1cccc2ccccc12)OC(=O)CCC(=O)O (stereo not shown) [propranolol-o-hemi-succinate HCl] in terms of half-life is 30

---

assay: Intravenous propranolol-o-hemi-succinate hydrochloride; plasma levels of unchanged ester and free propranolol (Example 5); format: in vivo, beagle dogs; conditions: dog, plasma, iv, 26.7 mg, 4 hrs; i.v. 26.7 mg; mean; * = estimate only, below level of reliable quantitation; read-out: Mean plasma level of unchanged propranolol-o-hemi-succinate HCl
Where a name gives a salt, the structure may show the parent alone.
observable: concentration at 4 h

Sample CC(C)NCC(COc1cccc2ccccc12)OC(=O)CCC(=O)O (stereo not shown) [propranolol-o-hemi-succinate HCl] ; concentration at 4 h observed: ~4 ng/mL

---

assay: Oral propranolol-o-hemi-succinate hydrochloride; plasma levels of unchanged ester and free propranolol (Example 5); assay type: in vivo, beagle dogs; conditions: dog, plasma, po, 107 mg, 4 hrs, mean, read-out: Mean plasma level of unchanged propranolol-o-hemi-succinate HCl
Where a name gives a salt, the structure may show the parent alone.
observable: concentration at 4 h (ng/mL)
A number alone suffices; assume ng/mL.

response.value for CC(C)NCC(COc1cccc2ccccc12)OC(=O)CCC(=O)O (stereo not shown) [propranolol-o-hemi-succinate HCl] (field: concentration at 4 h) = 62

---

Test: Oral administration of propranolol-o-hemi-succinate HCl and propranolol HCl; plasma levels of free propranolol (Example 2)
Format: in vivo, beagle dogs
Settings: dog, plasma, 80 mg propranolol HCl or equivalent
Procedure: In this experiment, four beagle dogs were given an 80 mg. oral dose of propranolol HCl or an equivalent dose of the o-hemi-succinate. The animals were divided into two groups of two, each group receiving the drugs according to a crossover design. The crossover experiment was repeated twice. […] Blood samples were obtained at regular intervals after dosing a plasma was analyzed for free propranolol concentrations. Plasma was analyzed for free propranolol by a TLC fluorometric procedure. […]
Where a name gives a salt, the structure may show the parent alone.
observable: half-life (min)
Your answer is read as min, so omit the unit and give the number.

// recorded half-life for CC(C)NCC(O)COc1cccc2ccccc12 (stereo not shown) [propranolol HCl] : 108

---

assay: Intravenous propranolol-o-hemi-succinate hydrochloride; plasma levels of unchanged ester and free propranolol (Example 5); format: in vivo, beagle dogs; details: dog, plasma, iv, 26.7 mg, 1 hr; i.v. 26.7 mg; mean; read-out: Mean plasma level of unchanged propranolol-o-hemi-succinate HCl
Where a name gives a salt, the structure may show the parent alone.
observable: concentration at 1 h (ng/mL)
# value in ng/mL; strip the unit string

CC(C)NCC(COc1cccc2ccccc12)OC(=O)CCC(=O)O (stereo not shown) [propranolol-o-hemi-succinate HCl] yielded concentration at 1 h of 284

---

assay: Intravenous propranolol-o-hemi-succinate hydrochloride; plasma levels of unchanged ester and free propranolol (Example 5); type: in vivo, beagle dogs; details: dog, plasma, iv, 26.7 mg, 5 min; i.v. 26.7 mg; mean; read-out: Mean plasma level of unchanged propranolol-o-hemi-succinate HCl
Where a name gives a salt, the structure may show the parent alone.
observable: concentration at 5 min
Give me the value, and tack the unit on after it.

Measured concentration at 5 min of CC(C)NCC(COc1cccc2ccccc12)OC(=O)CCC(=O)O (stereo not shown) [propranolol-o-hemi-succinate HCl] : 2240 ng/mL

---

assay: Intravenous administration of propranolol HCl and propranolol-o-hemi-succinate HCl; plasma levels of free propranolol (Example 3); assay type: in vivo, beagle dogs; settings: dog, plasma, iv, 20 mg, 4 hr after dosing; i.v., 20 mg propranolol HCl or equivalent; mean; read-out: Mean plasma level of free propranolol
Counter-ions that a name gives are not always drawn.
observable: concentration at 4 h (ng/mL)
Please state the figure in ng/mL; there is no need to write the unit.

Query CC(C)NCC(O)COc1cccc2ccccc12 (stereo not shown) [propranolol HCl] yields concentration at 4 h of 79

---

assay: Oral propranolol-o-hemi-succinate hydrochloride; plasma levels of unchanged ester and free propranolol (Example 5); format: in vivo, beagle dogs; settings: dog, plasma, po, 107 mg, mean, read-out: Mean AUC 0-6 Hrs. of unchanged propranolol-o-hemi-succinate HCl
Structures can show the parent of a compound that is named as a salt.
observable: AUC(0-t) at 6 h (ng·h/mL)
Could you give me the number in ng·h/mL? Just the number is fine.

Noted for CC(C)NCC(COc1cccc2ccccc12)OC(=O)CCC(=O)O (stereo not shown) [propranolol-o-hemi-succinate HCl] : its AUC(0-t) at 6 h reads 3470

---

Experiment: Intravenous administration of propranolol HCl and propranolol-o-hemi-succinate HCl; plasma levels of free propranolol (Example 3)
Assay type: in vivo, beagle dogs
Conditions: dog, plasma, iv, 20 mg, 1/2 hr after dosing; i.v., 20 mg propranolol HCl or equivalent; mean; read-out: Mean plasma level of free propranolol
Method: Plasma was analyzed for free propranolol by a TLC fluorometric procedure. Two ml samples were mixed with 2 ml of pH 10 buffer and extracted with 25 ml of ethyl ether. A 20 ml aliquot from the ether phase was evaporated to dryness and the dry residue was dissolved in 100 μl of ethanol. […] They were then read in the fluorescence mode of a Schoeffel spectrodensitometer. The limit of reliable quantitation was 2 ng. of propranolol per ml of plasma. […]
Counter-ions that a name gives are not always drawn.
observable: concentration at 0.5 h

Kindly note the recorded concentration at 0.5 h for CC(C)NCC(O)COc1cccc2ccccc12 (stereo not shown) [propranolol HCl] , which is 231 ng/mL

---

assay: Intravenous administration of propranolol HCl and propranolol-o-hemi-succinate HCl; plasma levels of free propranolol (Example 3); type: in vivo, beagle dogs; conditions: dog, plasma, iv, 20 mg, 1 hr after dosing; i.v., 20 mg propranolol HCl or equivalent; mean; read-out: Mean plasma level of free propranolol
Counter-ions that a name gives are not always drawn.
observable: concentration at 1 h (ng/mL)
Give a bare numeral; the unit ng/mL is implied.

concentration at 1 h reported for this molecule CC(C)NCC(O)COc1cccc2ccccc12 (stereo not shown) [propranolol HCl] : 201

---

assay: Intravenous propranolol-o-hemi-succinate hydrochloride; plasma levels of unchanged ester and free propranolol (Example 5); format: in vivo, beagle dogs; conditions: dog, plasma, iv, 26.7 mg, 4 hrs; i.v. 26.7 mg; individual dogs; * = estimate only, below level of reliable quantitation; read-out: Plasma level of unchanged propranolol-o-hemi-succinate HCl
Structures can show the parent of a compound that is named as a salt.
observable: concentration at 4 h

Kindly note the recorded concentration at 4 h for CC(C)NCC(COc1cccc2ccccc12)OC(=O)CCC(=O)O (stereo not shown) [propranolol-o-hemi-succinate HCl] , which is ~15 ng/mL

Reference for the values: patent US4201866A
